Molecular target: STK33 (human) (UniProt Q9BYT3)
Sequence (Q9BYT3 whole entry, looked up): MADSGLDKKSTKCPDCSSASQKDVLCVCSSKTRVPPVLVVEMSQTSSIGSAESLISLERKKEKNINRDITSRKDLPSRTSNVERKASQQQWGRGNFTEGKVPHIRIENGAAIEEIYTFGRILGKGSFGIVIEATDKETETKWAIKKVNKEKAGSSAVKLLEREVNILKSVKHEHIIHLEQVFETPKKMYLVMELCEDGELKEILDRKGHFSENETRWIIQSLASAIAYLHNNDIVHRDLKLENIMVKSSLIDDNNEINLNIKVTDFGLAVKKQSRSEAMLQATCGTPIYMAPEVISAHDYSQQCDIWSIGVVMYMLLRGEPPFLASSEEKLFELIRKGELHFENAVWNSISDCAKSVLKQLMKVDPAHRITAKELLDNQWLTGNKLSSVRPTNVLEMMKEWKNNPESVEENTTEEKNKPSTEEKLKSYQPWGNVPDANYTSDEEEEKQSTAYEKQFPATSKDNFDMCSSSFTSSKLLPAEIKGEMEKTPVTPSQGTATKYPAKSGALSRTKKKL
Assay: KINOMEscan competition binding
Conditions: compound 10.0 µM
Result type: kinase still bound, per cent of control

Here's what some known entries look like.
Cc1cc(Nc2cc(N3CCN(C)CC3)nc(Sc3ccc(NC(=O)C4CC4)cc3)n2)[nH]n1 ... no effect (inactive)
CCS(=O)(=O)Nc1ccc2c(c1)[C@H](/C(=N/c1ccc(CN3CCCCC3)cc1)c1ccccc1)C(=O)N2 ... 0%
CC(=O)c1c(-c2ccncc2)[nH]c(-c2ccncc2)c1C ... no effect (inactive)
NC(=O)Nc1sc(-c2ccc(F)cc2)cc1C(N)=O ... no effect (inactive)

Reported kinase still bound, per cent of control for c1ccc(-c2n[nH]cc2-c2ccnc3ccccc23)nc1 was no effect (inactive)
